STUDY SYSTEM: rat C5aR (Rattus norvegicus)
Sequence (P97520 whole entry): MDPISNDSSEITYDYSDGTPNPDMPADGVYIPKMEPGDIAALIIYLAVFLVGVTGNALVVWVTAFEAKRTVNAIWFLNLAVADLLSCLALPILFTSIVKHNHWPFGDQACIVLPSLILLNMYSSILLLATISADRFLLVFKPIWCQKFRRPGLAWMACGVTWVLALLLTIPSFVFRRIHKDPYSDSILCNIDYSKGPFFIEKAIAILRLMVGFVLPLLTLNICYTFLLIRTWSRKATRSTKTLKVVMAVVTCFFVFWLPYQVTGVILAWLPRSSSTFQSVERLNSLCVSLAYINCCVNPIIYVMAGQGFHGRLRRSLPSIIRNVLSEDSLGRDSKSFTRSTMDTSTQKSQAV
RUN PARAMETERS: read-out: IC50, rat C5aR (C5a-induced PMN migration); rat PMNs, 10 nM rC5a
pIC50: −log10 of the molar value.
OBSERVED PROPERTY: pIC50

1. CC(c1ccc(Nc2nc(C(F)(F)F)cs2)cc1)c1nnn[nH]1 (stereo not shown) [DF3016A]
7.35

---

STUDY SYSTEM: mouse C5aR (Mus musculus, UniProt P30993)
Sequence (P30993 whole entry): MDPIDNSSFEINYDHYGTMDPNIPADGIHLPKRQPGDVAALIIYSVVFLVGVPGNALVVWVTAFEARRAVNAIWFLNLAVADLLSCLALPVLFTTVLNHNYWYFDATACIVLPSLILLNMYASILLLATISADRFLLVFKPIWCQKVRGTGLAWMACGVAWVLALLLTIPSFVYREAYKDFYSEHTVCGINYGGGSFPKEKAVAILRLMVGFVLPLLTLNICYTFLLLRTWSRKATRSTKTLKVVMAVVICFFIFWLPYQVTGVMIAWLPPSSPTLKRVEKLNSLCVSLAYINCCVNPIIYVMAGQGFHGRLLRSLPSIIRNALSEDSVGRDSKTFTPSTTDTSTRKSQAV
RUN PARAMETERS: read-out: IC50, mouse C5aR (C5a-induced PMN migration); mouse PMNs, 10 nM mC5a
Protocol: Murine and rat PMNs were isolated from peritoneal cavities injected with 1.5 ml of 3% thioglycolate in saline to male Balb/c mice (20–25 g and 7–9 weeks of age, provided by Charles River, Calco, Italy) or with […] of 3% thioglycolate in saline to SD rat (370–450 g and 3–4 months of age provided by Charles River, UK). […] The pellet was resuspended in Hank’s Balanced Salt Solution (HBSS); then the cells were counted using Türk’s solution and diluted at 3 × 10^6 cells/ml. […]
OBSERVED PROPERTY: IC50

1. CC(c1ccc(Nc2nc(C(F)(F)F)cs2)cc1)c1nnn[nH]1 (stereo not shown) [DF3016A]
37 nM

---

STUDY SYSTEM: UniProt P21730
Sequence (P21730 whole entry): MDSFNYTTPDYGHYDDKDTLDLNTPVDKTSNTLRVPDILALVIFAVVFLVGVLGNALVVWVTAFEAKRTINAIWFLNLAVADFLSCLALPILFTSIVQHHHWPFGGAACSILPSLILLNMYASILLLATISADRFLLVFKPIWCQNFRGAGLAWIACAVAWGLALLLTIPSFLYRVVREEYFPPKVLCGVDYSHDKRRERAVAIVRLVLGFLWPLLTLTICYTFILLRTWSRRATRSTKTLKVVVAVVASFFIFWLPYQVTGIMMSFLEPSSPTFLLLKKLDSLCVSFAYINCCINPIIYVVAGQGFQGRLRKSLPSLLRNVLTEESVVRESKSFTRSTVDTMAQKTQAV
RUN PARAMETERS: read-out: IC50, inhibition of C5a-induced human PMN migration; human PMNs, 10 nM C5a
Procedure: Migration of human, rat, and mouse PMNs was evaluated using a 48-well micro-chemotaxis chamber, as previously described (Bertini et al. [2004]). […] At the end of incubation, filters containing migrated cells were removed, fixed, and stained with Diff-Quik, and five oil immersion fields at high magnification (×100; Zeiss microscope) were counted after sample coding.
pIC50: −log10 of the molar value.
OBSERVED PROPERTY: pIC50

1) CC(c1ccc(Nc2nc(C(F)(F)F)cs2)cc1)c1nnn[nH]1 (stereo not shown) [DF3016A]
7.30
